# measurement target: JAK1 (Homo sapiens (Human))
# Sequence (P23458 875-1153): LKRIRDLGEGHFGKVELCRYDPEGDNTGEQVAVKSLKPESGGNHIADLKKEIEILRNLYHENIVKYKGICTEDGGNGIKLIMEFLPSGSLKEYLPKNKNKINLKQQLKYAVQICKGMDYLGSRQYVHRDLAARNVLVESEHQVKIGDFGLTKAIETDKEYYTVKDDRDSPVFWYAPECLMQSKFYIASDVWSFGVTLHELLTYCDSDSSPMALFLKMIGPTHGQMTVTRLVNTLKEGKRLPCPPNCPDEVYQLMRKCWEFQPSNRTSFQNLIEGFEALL
# assay info: Jak Biochemical HTRF Assay, JAK1
# condition details: HTRF biochemical assay, GST-tagged catalytic domain; top concentration tested […]; read-out: JAK1 IC50
pIC50: −log10 of the molar value.
assay readout: pIC50

Example results:
CC(C)(C)OC(=O)N1CCC(CC#N)(n2cc(C(N)=O)c(Nc3ccc(C(=O)N4CCOCC4)c(F)c3)n2)CC1 | 9.70
N#CC[C@]1(n2cc(C(N)=O)c(Nc3ccc(F)cc3)n2)CC[C@@H](NCc2ccccc2)CC1 | 10.05
CC(C)(C)OC(=O)N1CCC(CC#N)(n2cc(C(N)=O)c(Nc3ccncn3)n2)CC1 | 8.52
N#CCC1(n2cc(C(N)=O)c(Nc3ccccc3)n2)CCN(C(=O)OCc2ccccc2)CC1 | 8.52
CC(C)S(=O)(=O)N1CCC(CC#N)(n2cc(C(N)=O)c(Nc3ccccc3)n2)CC1 | 8.70
N#CCC1(n2cc(C(N)=O)c(Nc3ccccc3)n2)CN(C(=O)OCCc2ccccn2)C1 | 6.97

[A] N#CC[C@]1(n2cc(C(N)=O)c(Nc3ccnc(F)c3)n2)CC[C@H](NCc2ccc(F)cc2F)CC1
[B] N#CCC1(n2cc(C(N)=O)c(Nc3ccnc(F)c3)n2)CCN(Cc2ccc(F)cc2)CC1
[C] N#CCC1(n2cc(C(N)=O)c(Nc3ccnc(F)c3)n2)CCC(NCc2ccc(O)cc2)CC1 (centres unmarked)
[D] CC(C)c1ccc(CN2CCC(CC#N)(n3cc(C(N)=O)c(Nc4ccccc4)n3)CC2)cc1
[E] N#CCC1(n2cc(C(N)=O)c(Nc3ccnc(F)c3)n2)CCC(N2CC(F)C2)CC1 (centres unmarked) [Example 40-104]
Rank items: key pIC50, increasing. In plain terms: list the labels in the order you were asked to.
D, C, A, E, B

[A] CC(F)(F)C(=O)N1CCC(CC#N)(n2cc(C(N)=O)c(Nc3ccnc(F)c3)n2)CC1
[B] Cc1cc(C)c(NC(=O)N2CC(CC#N)(n3cc(C(N)=O)c(Nc4ccccc4)n3)C2)c(C)c1
Of A versus B , which is the one with smaller reported pIC50? Selection: enter the item's label.
B
(B: 6.89, A: 10.00)

[1] CCc1ccc(NC(=O)N2CC(CC#N)(n3cc(C(N)=O)c(Nc4ccccc4)n3)C2)cc1
[2] N#CCC1(n2cc(C(N)=O)c(Nc3ccc(F)cc3)n2)CCS(=O)(=O)CC1
[3] N#CCC1(n2cc(C(N)=O)c(Nc3ccnc(F)c3)n2)CCC(Nc2ccccc2F)CC1 (centres unmarked) [Example 40-17]
[4] CS(=O)(=O)c1ccc(Nc2nn(C3(CC#N)CCC4(CC3)OCCO4)cc2C(N)=O)cc1
Output the entries ranked by pIC50 from maximum down to minimum. In plain terms: list the labels in the order you were asked to.
3, 1, 4, 2

---

# measurement target: JAK2 (Homo sapiens (Human))
# Sequence (O60674 849-1124): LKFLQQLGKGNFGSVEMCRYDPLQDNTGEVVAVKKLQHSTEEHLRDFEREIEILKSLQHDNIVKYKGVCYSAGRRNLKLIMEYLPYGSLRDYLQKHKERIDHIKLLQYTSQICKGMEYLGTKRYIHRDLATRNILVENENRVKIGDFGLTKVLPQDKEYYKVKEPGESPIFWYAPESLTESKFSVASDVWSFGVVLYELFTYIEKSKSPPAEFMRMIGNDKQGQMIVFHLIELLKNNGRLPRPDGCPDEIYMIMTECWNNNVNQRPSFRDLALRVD
# assay info: Jak Biochemical HTRF Assay, JAK2
# condition details: HTRF biochemical assay, GST-tagged catalytic domain; top concentration tested […]
pIC50: −log10 of the molar value.
assay readout: pIC50

N#CCC1(n2cc(C(N)=O)c(Nc3ccccc3)n2)CCN(C(=O)C2CCCO2)CC1 (stereo not drawn) [Example 34-6] | 6.97
CC(C)[C@H](O)C(=O)N1CCC(CC#N)(n2cc(C(N)=O)c(Nc3ccnc(F)c3)n2)CC1 [Example 34-47] | 7.10
CC(C)(C)OC(=O)N1CCC(CC#N)(n2cc(C(N)=O)c(Nc3cc(F)cc(F)c3)n2)CC1 [Example 12-3] | 7.38
N#CCC1(n2cc(C(N)=O)c(Nc3ccc(F)cc3)n2)CCN(C(=O)OC2CCC2)CC1 [Example 30-4] | 7.48
CCOc1ccccc1CN1CCC(CC#N)(n2cc(C(N)=O)c(Nc3ccccc3)n2)CC1 [Example 21-16] | 6.07

[1] CC(C)NC(=O)N1CC(CC#N)(n2cc(C(N)=O)c(Nc3ccccc3)n2)C1 [Example 38-3]
[2] CC(C)c1ccccc1NC(=O)N1CC(CC#N)(n2cc(C(N)=O)c(Nc3ccccc3)n2)C1 [Example 38-8]
[3] N#CCC1(n2cc(C(N)=O)c(Nc3ccnc(F)c3)n2)CCC(NCc2cccnc2)CC1 (stereo not drawn) [Example 41-22]
[4] Cc1cnc(F)c(CN2CCC(CC#N)(n3cc(C(N)=O)c(Nc4ccc(F)cc4)n3)CC2)c1 [Example 22-44]
Output the entries ranked by pIC50 from maximum down to minimum. In plain terms: list the labels in the order you were asked to.
4, 1, 2, 3
(4: 7.66, 1: 6.73, 2: 6.37, 3: 5.98)

---

# measurement target: UniProtKB P23458
# assay info: Jak Biochemical HTRF Assay, JAK1
# condition details: HTRF biochemical assay, GST-tagged catalytic domain; top concentration tested […]; read-out: JAK1 IC50
pIC50: −log10 of the molar value.
assay readout: pIC50

Example results:
Cn1ccc(-c2ccc(Nc3nn(C4(CC#N)CCN(C(=O)OC(C)(C)C)CC4)cc3C(N)=O)cc2)n1 [Example 9-13] | 8.52
N#CCC1(n2cc(C(N)=O)c(Nc3ccc(F)cc3)n2)CCN(Cc2cccc3cc[nH]c23)CC1 [Example 22-58] | 8.40
CC(C)(C)OC(=O)N1CCC(CC#N)(n2cc(C(N)=O)c(Nc3ccnc(Cl)c3)n2)CC1 [Example 9-29] | 10.00

[A] CC(C)(C)OC(=O)N1CCC(CC#N)(n2cc(C(N)=O)c(Nc3cccnn3)n2)CC1 [Example 13-6]
[B] CN(C)S(=O)(=O)c1ccc(Nc2nn(C3(CC#N)CCN(C(=O)OC(C)(C)C)CC3)cc2C(N)=O)cc1 [Example 9-21]
Given A and B , report the one with the higher recorded pIC50. Selection: enter the item's label.
B
(B: 9.52, A: 7.59)

[a] N#CCC1(n2cc(C(N)=O)c(Nc3ccnc(F)c3)n2)CCC(Nc2ccccc2Cl)CC1 (centres unmarked) [Example 40-11]
[b] C[C@@H](O)CC(=O)N1CCC(CC#N)(n2cc(C(N)=O)c(Nc3ccnc(F)c3)n2)CC1 [Example 34-62]
[c] N#CCC1(n2cc(C(N)=O)c(Nc3ccnc(F)c3)n2)CCC(Nc2ccccc2F)CC1 (centres unmarked) [Example 40-24]
Rank items: key pIC50, increasing. In plain terms: list the labels in the order you were asked to.
c, b, a

[1] CCS(=O)(=O)N1CCC(CC#N)(n2cc(C(N)=O)c(Nc3ccccc3)n2)CC1 [Example 37-3]
[2] Cc1ccc(N2CCC(CC#N)(n3cc(C(N)=O)c(Nc4ccc(F)cc4)n3)CC2)cc1F [Example 3-34]
Given 1 and 2 , report the one with the higher recorded pIC50. Selection: enter the item's label.
1
(1: 9.00, 2: 8.30)

---

# measurement target: JAK2 (Homo sapiens (Human))
# assay info: Jak Biochemical HTRF Assay, JAK2
# condition details: HTRF biochemical assay, GST-tagged catalytic domain; top concentration tested […]
pIC50: −log10 of the molar value.
assay readout: pIC50

COc1ccc2cc(CN3CCC(CC#N)(n4cc(C(N)=O)c(Nc5ccccc5)n4)CC3)ccc2c1 [Example 21-13] | 6.53

[A] N#CCC1(n2cc(C(N)=O)c(Nc3ccc(F)cc3)n2)CCC(Nc2ccccc2F)CC1 (stereo not drawn) [Example 40-58]
[B] N#CCC1(n2cc(C(N)=O)c(Nc3ccnc(F)c3)n2)CCC(NCc2ccccc2Cl)CC1 (stereo not drawn) [Example 41-10]
Given A and B , report the one with the higher recorded pIC50. Selection: enter the item's label.
B
(B: 8.70, A: 8.15)

---

# measurement target: JAK1 (Homo sapiens (Human))
# assay info: Jak Biochemical HTRF Assay, JAK1
# condition details: HTRF biochemical assay, GST-tagged catalytic domain; top concentration tested […]; read-out: JAK1 IC50
pIC50: −log10 of the molar value.
assay readout: pIC50

[a] CC(C)(C)OC(=O)C1CCC(CC#N)(n2cc(C(N)=O)c(Nc3ccccc3)n2)CC1 (stereo not shown) [Example 2-18]
[b] CC(C)(C)OC(=O)N1CCC(CC#N)(n2cc(C(N)=O)c(Nc3cccc(Cn4nnc5ccccc54)c3)n2)CC1 [Example 2-4]
Given a and b , report the one with the higher recorded pIC50. Selection: enter the item's label.
b

[1] N#CCC1(n2cc(C(N)=O)c(Nc3ccc(F)cc3)n2)CCN(c2cncc(C(F)(F)F)c2)CC1 [Example 3-8]
[2] COc1ccc(C(=O)N2CCC(CC#N)(n3cc(C(N)=O)c(Nc4ccccc4)n3)CC2)cc1OC [Example 34-27]
Given 1 and 2 , report the one with the higher recorded pIC50. Selection: enter the item's label.
1
(1: 9.00, 2: 7.49)

---

# measurement target: UniProtKB O60674
# assay info: Jak Biochemical HTRF Assay, JAK2
# condition details: HTRF biochemical assay, GST-tagged catalytic domain; top concentration tested […]
assay readout: IC50

Example results:
N#CCC1(n2cc(C(N)=O)c(Nc3ccc(F)cc3)n2)CCC(Nc2ccc(C(F)(F)F)cc2)CC1 (stereo not drawn) [Example 40-73] | > 1.5 µM
Cn1ccc(CN2CCC(CC#N)(n3cc(C(N)=O)c(Nc4ccnc(F)c4)n3)CC2)n1 [Example 22-30] | > 1.5 µM

Would you mind telling me what IC50 value was observed for N#CCC1(n2cc(C(N)=O)c(Nc3ccc(F)cc3)n2)CCC(NC2CCOCC2)CC1 (stereo not drawn) [Example 40-5] ?
> 1.5 µM
